- Assay Target: Caspase-6 (Homo sapiens) (UniProt P55212)
- Sequence (whole entry): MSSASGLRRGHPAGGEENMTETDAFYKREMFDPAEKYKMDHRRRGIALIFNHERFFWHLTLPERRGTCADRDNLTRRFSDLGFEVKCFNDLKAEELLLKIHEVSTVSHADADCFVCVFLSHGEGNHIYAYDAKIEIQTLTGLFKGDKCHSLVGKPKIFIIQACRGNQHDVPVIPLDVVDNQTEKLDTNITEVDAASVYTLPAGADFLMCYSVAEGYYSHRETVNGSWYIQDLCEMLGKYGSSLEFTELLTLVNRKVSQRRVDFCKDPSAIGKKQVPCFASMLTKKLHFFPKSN
- Run Description: Compound was evaluated for potent inhibition of caspase-6
Recorded log10 k2 values for a group of molecules are listed next.
Quantity Kind: log10 k2 (log10 of the value in M⁻¹ s⁻¹)

1) CC(C)C[C@H](NC(=O)OCc1ccccc1)C(=O)N[C@@H](CCC(=O)O)C(=O)N[C@H](C(=O)NN(CC(=O)O)C(=O)/C=C/C(=O)N(C)Cc1ccccc1)[C@@H](C)O    4.03
2) CC(C)[C@H](NC(=O)[C@H](CCC(=O)O)NC(=O)[C@H](CC(=O)O)NC(=O)OCc1ccccc1)C(=O)NN(CC(=O)O)C(=O)/C=C/C(=O)NCc1ccccc1    3.51
3) CCOC(=O)/C=C/C(=O)N(CC(=O)O)NC(=O)[C@@H](NC(=O)[C@H](CCC(=O)O)NC(=O)[C@H](CC(=O)O)NC(=O)OCc1ccccc1)C(C)C    4.55
4) CC(C)[C@H](NC(=O)[C@H](CCC(=O)O)NC(=O)[C@H](CC(=O)O)NC(=O)OCc1ccccc1)C(=O)NN(CC(=O)O)C(=O)/C=C/C(=O)N(C)Cc1ccccc1    3.98
5) CC(C)C[C@H](NC(=O)OCc1ccccc1)C(=O)N[C@@H](CCC(=O)O)C(=O)N[C@H](C(=O)NN(CC(=O)O)C(=O)/C=C/C(=O)OCc1ccccc1)[C@@H](C)O    4.68
6) CC(C)[C@H](NC(=O)[C@H](CCC(=O)O)NC(=O)[C@H](CC(=O)O)NC(=O)OCc1ccccc1)C(=O)NN(CC(=O)O)C(=O)/C=C/C(=O)OCc1ccccc1    3.93
7) CCOC(=O)/C=C/C(=O)N(CC(=O)O)NC(=O)[C@@H](NC(=O)[C@H](CCC(=O)O)NC(=O)[C@H](CC(C)C)NC(=O)OCc1ccccc1)[C@@H](C)O    4.27

====

- Assay Target: Caspase-8 (Homo sapiens)
- Run Description: Compound was evaluated for potent inhibition of caspase-8
Lab note: compare k2 with 200000 M⁻¹ s⁻¹, writing 1 if less and 0 if equal or more.

1. CC(C)C[C@H](NC(=O)OCc1ccccc1)C(=O)N[C@@H](CCC(=O)O)C(=O)N[C@H](C(=O)NN(CC(=O)O)C(=O)/C=C/C(=O)OCc1ccccc1)[C@@H](C)O    1
2. CC(C)[C@H](NC(=O)[C@H](CCC(=O)O)NC(=O)[C@H](CC(=O)O)NC(=O)OCc1ccccc1)C(=O)NN(CC(=O)O)C(=O)/C=C/C(=O)N(C)Cc1ccccc1    1
3. CCOC(=O)/C=C/C(=O)N(CC(=O)O)NC(=O)[C@@H](NC(=O)[C@H](CCC(=O)O)NC(=O)[C@H](CC(C)C)NC(=O)OCc1ccccc1)[C@@H](C)O    0
4. CC(C)C[C@H](NC(=O)OCc1ccccc1)C(=O)N[C@@H](CCC(=O)O)C(=O)N[C@H](C(=O)NN(CC(=O)O)C(=O)/C=C/C(=O)N(C)Cc1ccccc1)[C@@H](C)O    1
5. CC(C)[C@H](NC(=O)[C@H](CCC(=O)O)NC(=O)[C@H](CC(=O)O)NC(=O)OCc1ccccc1)C(=O)NN(CC(=O)O)C(=O)/C=C/C(=O)NCc1ccccc1    1
6. CCOC(=O)/C=C/C(=O)N(CC(=O)O)NC(=O)[C@@H](NC(=O)[C@H](CCC(=O)O)NC(=O)[C@H](CC(=O)O)NC(=O)OCc1ccccc1)C(C)C    0
7. CC(C)[C@H](NC(=O)[C@H](CCC(=O)O)NC(=O)[C@H](CC(=O)O)NC(=O)OCc1ccccc1)C(=O)NN(CC(=O)O)C(=O)/C=C/C(=O)OCc1ccccc1    1
